# Test system: UACC-257
# Experimental Details: panel of 60 human tumor cell lines, growth inhibition (Melanoma)
# Condition Set: UACC-257; Log10 Concentration −8.0

Compound	Percent Growth
C=C1C(=O)O[C@H]2[C@H]1CC/C(COC(=O)OCCCN1CCCCC1)=C\CC[C@@]1(C)O[C@@H]21 [JVM 2-26]	91%
C=C1C(=O)O[C@H]2[C@H]1CC/C(COC(=O)NCCc1ccccn1)=C\CC[C@@]1(C)O[C@@H]21 [JVM 61]	97%
C=C1C(=O)O[C@H]2[C@H]1CC/C(COC(=O)OC)=C\CC[C@@]1(C)O[C@@H]21 [JVM 2-40]	90%
C=C1C(=O)O[C@H]2[C@H]1CC/C(COC(=O)Nc1n[nH]c(SC)n1)=C\CC[C@@]1(C)O[C@@H]21 [JVM 64]	102%

Data origin: patent US9469650B2
